Study Target: human F508del-CFTR (Homo sapiens, UniProt P13569, DEL508-508)
Sequence (P13569 with tags, fused parts or gaps DEL508-508): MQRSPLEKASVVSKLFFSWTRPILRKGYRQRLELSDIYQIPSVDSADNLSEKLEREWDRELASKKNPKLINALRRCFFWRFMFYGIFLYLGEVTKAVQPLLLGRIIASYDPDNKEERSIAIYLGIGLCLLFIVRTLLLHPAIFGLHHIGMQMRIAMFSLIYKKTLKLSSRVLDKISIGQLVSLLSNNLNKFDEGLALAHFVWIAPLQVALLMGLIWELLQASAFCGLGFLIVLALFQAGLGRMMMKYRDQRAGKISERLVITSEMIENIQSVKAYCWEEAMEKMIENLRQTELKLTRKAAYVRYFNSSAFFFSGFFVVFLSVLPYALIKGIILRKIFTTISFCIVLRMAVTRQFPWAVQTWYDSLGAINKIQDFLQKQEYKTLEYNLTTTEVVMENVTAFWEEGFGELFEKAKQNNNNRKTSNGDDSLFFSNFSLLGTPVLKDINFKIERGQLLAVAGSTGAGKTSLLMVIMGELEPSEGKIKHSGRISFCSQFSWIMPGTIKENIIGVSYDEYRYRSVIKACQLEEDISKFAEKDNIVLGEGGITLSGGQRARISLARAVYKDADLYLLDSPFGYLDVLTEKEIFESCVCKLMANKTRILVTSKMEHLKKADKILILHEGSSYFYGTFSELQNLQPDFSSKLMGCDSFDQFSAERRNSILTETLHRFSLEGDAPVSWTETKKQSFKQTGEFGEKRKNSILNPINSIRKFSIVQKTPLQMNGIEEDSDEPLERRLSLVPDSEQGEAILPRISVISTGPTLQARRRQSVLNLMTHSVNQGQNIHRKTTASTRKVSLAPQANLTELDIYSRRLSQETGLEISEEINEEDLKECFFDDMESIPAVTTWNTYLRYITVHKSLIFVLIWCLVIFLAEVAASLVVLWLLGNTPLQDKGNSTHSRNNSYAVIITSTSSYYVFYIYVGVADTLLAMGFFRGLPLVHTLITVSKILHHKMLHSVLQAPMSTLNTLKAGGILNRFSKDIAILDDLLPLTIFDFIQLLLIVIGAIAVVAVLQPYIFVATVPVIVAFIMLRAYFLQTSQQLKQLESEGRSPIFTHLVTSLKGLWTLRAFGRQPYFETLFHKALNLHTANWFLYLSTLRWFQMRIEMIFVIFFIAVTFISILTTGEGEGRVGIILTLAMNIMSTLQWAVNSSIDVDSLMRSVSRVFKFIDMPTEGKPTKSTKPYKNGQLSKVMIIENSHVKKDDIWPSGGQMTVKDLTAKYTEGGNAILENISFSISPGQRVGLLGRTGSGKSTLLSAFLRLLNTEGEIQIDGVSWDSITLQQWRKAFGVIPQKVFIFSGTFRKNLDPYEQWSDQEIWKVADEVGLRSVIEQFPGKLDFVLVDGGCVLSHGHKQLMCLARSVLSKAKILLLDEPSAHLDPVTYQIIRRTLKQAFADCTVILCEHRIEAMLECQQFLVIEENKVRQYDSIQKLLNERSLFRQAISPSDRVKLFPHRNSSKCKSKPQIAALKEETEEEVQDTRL
Procedure Details: F508del-CFTR cell surface expression (corrector activity), DiscoveRx ß-galactosidase complementation chemiluminescence assay in recombinant U2OS cell line
Condition Parameters: EC50, F508del-CFTR cell surface expression, U2OS cells, 16h compound incubation; geomean of several measurements
Observable: pEC50
Please keep in mind that pEC50 is minus log10 of the molar concentration; only the number is needed.

See these solved cases before continuing.
entry_smiles=COc1cc(CCNC(=O)[C@@H]2CC(=O)N(C)[C@@H](CC(C)C)C(=O)N3CCCC[C@@H]3C(=O)N[C@H](Cc3ccccc3)COc3ccc4ncccc4c3C(=O)N2)on1 observable=pEC50 reported=6.57
entry_smiles=COCCn1cc(CCNC(=O)[C@@H]2CC(=O)N(C)[C@@H](CC(C)C)C(=O)N(C)[C@H](Cc3nc(C(F)(F)F)no3)C(=O)N[C@H](Cc3ccccc3)COc3ccc4ncc(F)cc4c3C(=O)N2)cn1 observable=pEC50 reported=6.99
entry_smiles=Cc1cc2c3c(ccc2cn1)OC[C@@H](Cc1ccccc1)NC(=O)[C@@H](CC(F)F)N(C)C(=O)[C@H](CC(C)C)N(C)C(=O)C[C@@H](C(=O)NCCn1nnc(C2CC2)n1)NC3=O observable=pEC50 reported=6.40

Recorded pEC50 for `COCCc1ccc(-c2noc(C[C@@H]3C(=O)N[C@H](Cc4ccccc4)COc4ccnc(OC)c4C(=O)N[C@H](C(=O)NCCc4noc(C5CC5)n4)CC(=O)N(C)[C@@H](CC(C)C)C(=O)N3C)n2)cc1` , please?
7.51

Recorded pEC50 for `COc1noc(CCNC(=O)[C@@H]2CC(=O)N(C)[C@@H](CC(C)C)C(=O)N(C)[C@H](Cc3noc(C(C)(C)C)n3)C(=O)N[C@H](Cc3ccccc3)COc3ccc4ncc(F)cc4c3C(=O)N2)n1` , please?
6.79

====

Study Target: human F508del-CFTR (Homo sapiens, UniProt P13569, DEL508-508)
Procedure Details: F508del-CFTR cell surface expression (corrector activity), DiscoveRx ß-galactosidase complementation chemiluminescence assay in recombinant U2OS cell line;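 note: U2OS cells co-expressing ProLink-tagged F508del-CFTR and a membrane-anchored enzyme acceptor, where more surface CFTR restores β-galactosidase activity measured by chemiluminescence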
Condition Parameters: U2OS, in relation to the Emax of the corrector lumacaftor (=100%); U2OS cells, 16h compound incubation; arithmetic mean
Observable: Emax (%)
The reply should be a number in %, with the unit left off.

See these solved cases before continuing.
entry_smiles=COc1nc(C)cc2c1C(=O)N[C@H](C(=O)NCCn1nc3ccccc3n1)CC(=O)N(C)[C@@H](CC(C)C)C(=O)N(C)[C@H](Cc1nc(C(F)(F)F)no1)C(=O)N[C@H](Cc1ccccc1)CO2 reported=414
entry_smiles=Cc1cc(CCNC(=O)[C@@H]2CC(=O)N(C)[C@@H](CC(C)C)C(=O)N(C)[C@H](Cc3nc(-c4ccc(F)cn4)no3)C(=O)N[C@H](Cc3ccccc3)COc3ccc4ncc(F)cc4c3C(=O)N2)on1 reported=358
entry_smiles=Cc1cc2c3c(ccc2cn1)OC[C@@H](Cc1ccccc1)NC(=O)[C@@H](Cc1nc(C(F)F)no1)N(C)C(=O)[C@H](CC(C)C)N(C)C(=O)C[C@@H](C(=O)NCCn1nnc(C2CC2)n1)NC3=O reported=393
entry_smiles=COc1cc(CCNC(=O)[C@@H]2CC(=O)N(C)[C@@H](CC(C)C)C(=O)N(C)[C@H](C)C(=O)N[C@H](Cc3ccccc3)COc3ccc4cnc(C)cc4c3C(=O)N2)on1 reported=388

Recorded Emax for `COc1ccc(CCNC(=O)[C@@H]2CC(=O)N(C)[C@@H](CC(C)C)C(=O)N(C)[C@H](Cc3nc(-c4ccc(F)cn4)no3)C(=O)N[C@H](Cc3ccccc3)COc3cnc4ccc(F)cc4c3C(=O)N2)cn1` , please?
368
